Target: UP1 (UniProt P09651-2 1-196)
Sequence (P09651 1-196): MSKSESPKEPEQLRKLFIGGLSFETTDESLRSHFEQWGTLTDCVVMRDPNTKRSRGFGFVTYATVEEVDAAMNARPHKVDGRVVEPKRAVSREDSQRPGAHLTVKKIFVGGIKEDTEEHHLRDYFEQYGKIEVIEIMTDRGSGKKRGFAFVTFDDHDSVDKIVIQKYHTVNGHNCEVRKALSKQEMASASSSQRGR
Assay: ITC; 100 mM KCl; ITC/CD: 20 mM Tris pH 8.0, 100 mM KCl, 25 C; NMR: 10 mM potassium phosphate pH 6.5, 100 mM KCl, 298 K (10% D2O for HSQC)
Conditions: protein: recombinant; tags: C-terminal 6xHis; single strand, 18 nt
pKd: −log10 of the molar value.
assayMetric: pKd

binder: GAGUAACCCGUAUCGUGA (ssRNA) [ssRNA-18]
observedResult: 5.63
